- SYSTEM_UNDER_TEST: Receptor-interacting serine/threonine-protein kinase 1 (Mus musculus, UniProt Q60855)
- Sequence (Q60855 whole entry): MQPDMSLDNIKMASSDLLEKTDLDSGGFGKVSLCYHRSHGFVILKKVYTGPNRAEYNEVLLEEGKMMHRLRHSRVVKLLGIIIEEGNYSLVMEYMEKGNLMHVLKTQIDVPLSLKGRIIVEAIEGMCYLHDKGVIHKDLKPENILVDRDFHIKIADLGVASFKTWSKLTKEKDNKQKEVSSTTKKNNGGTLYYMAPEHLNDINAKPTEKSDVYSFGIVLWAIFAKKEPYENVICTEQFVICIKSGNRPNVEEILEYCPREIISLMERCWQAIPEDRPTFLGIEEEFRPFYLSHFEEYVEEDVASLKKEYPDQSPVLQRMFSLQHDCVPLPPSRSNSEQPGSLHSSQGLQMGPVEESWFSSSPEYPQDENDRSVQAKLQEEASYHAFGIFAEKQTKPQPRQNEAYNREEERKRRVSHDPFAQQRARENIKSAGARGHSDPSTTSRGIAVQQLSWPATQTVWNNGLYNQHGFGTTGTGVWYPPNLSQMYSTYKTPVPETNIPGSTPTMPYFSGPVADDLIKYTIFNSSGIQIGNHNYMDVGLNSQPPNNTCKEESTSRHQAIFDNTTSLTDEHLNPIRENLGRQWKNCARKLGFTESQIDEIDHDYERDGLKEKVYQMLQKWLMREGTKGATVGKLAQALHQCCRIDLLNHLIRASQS
VALUE_TYPE: pKi
Scale explanation: pKi corresponds to minus log10 of a concentration expressed in moles per litre.

Ask: Data request, read-out pKi, for `COc1ccc2c(c1)CC[C@H](NC(=O)c1nc3n(n1)[C@H](c1ccccc1)CC3)C(=O)N2C`
Result: 6.72

###

- SYSTEM_UNDER_TEST: Receptor-interacting serine/threonine-protein kinase 3 (Homo sapiens, UniProt Q9Y572)
- Sequence (Q9Y572 whole entry): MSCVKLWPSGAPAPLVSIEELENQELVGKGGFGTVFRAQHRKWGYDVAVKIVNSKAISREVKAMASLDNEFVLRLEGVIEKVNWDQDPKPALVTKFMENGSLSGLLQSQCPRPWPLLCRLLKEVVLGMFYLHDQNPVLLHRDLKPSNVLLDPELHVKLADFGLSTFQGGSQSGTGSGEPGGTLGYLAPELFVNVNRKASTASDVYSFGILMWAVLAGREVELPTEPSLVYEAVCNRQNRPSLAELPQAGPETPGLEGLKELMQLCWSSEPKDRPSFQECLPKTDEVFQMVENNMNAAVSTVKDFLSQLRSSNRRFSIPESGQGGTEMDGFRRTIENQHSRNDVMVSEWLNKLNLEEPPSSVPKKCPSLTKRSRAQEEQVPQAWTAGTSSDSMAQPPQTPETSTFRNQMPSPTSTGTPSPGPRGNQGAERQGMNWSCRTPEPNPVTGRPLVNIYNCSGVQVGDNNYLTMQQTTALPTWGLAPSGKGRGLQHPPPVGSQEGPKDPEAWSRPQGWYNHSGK
- ASSAY_OVERVIEW: Inhibition of human RIPK3 using MBP as substrate by [gamma33-ATP] based radiometric assay
VALUE_TYPE: IC50 (nM)
The response must be a number in nM with no trailing unit.

Ask: Data request, read-out IC50, for CC(C)(C)c1nc(-c2cccc(NS(=O)(=O)c3c(F)cccc3F)c2F)c(-c2ccnc(N)n2)s1 [DABRAFENIB]
Result: 2

###

- SYSTEM_UNDER_TEST: Receptor-interacting serine/threonine-protein kinase 3 (Homo sapiens, UniProt Q9Y572)
- ASSAY_OVERVIEW: Inhibition of human full length N-terminal GST-tagged RIPK3 expressed in baculovirus infected sf9 insect cells assessed as reduction in MBP phosphorylation using MBP as substrate by kinase-Glo luminescence assay
VALUE_TYPE: pIC50
Scale explanation: pIC50 corresponds to minus log10 of a concentration expressed in moles per litre.

Ask: Data request, read-out pIC50, for CC(C)(C)c1nc(-c2cccc(NS(=O)(=O)c3c(F)cccc3F)c2F)c(-c2ccnc(N)n2)s1 [DABRAFENIB]
Result: 6.60

###

- SYSTEM_UNDER_TEST: Receptor-interacting serine/threonine-protein kinase 1 (Homo sapiens, UniProt Q13546)
- Sequence (Q13546 whole entry): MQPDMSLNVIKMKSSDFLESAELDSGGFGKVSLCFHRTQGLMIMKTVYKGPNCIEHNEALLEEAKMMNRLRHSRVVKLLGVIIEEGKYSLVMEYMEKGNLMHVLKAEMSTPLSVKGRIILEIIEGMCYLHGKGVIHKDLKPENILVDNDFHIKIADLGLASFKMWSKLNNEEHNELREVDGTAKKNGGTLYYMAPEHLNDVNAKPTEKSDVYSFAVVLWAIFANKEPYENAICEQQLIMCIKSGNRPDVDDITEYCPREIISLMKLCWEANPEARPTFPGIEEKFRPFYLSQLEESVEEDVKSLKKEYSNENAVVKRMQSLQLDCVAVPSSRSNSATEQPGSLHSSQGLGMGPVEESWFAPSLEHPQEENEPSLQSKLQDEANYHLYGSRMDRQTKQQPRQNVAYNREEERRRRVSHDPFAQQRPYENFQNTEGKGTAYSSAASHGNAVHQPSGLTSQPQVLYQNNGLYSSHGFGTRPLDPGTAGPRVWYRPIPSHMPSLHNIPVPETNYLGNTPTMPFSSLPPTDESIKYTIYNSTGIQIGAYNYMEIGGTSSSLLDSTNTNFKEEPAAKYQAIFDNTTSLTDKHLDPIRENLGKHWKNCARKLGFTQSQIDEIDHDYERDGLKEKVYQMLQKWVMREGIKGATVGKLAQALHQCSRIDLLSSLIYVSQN
- ASSAY_OVERVIEW: Inhibition of human RIPK1 by ADP-Glo assay
VALUE_TYPE: IC50 (nM)
The response must be a number in nM with no trailing unit.

Ask: Data request, read-out IC50, for `Cc1cc(-c2cnc(N)c3c(-c4ccc5scnc5c4)csc23)n(C)n1`
Result: 6.5

Ask: Data request, read-out IC50, for `CNC(=O)c1ccc2c(c1)ncn2-c1ccc(CC(=O)OC(C)(C)C)cc1`
Result: 0.3

Values compiled from ChEMBL document CHEMBL4376828.
